Origin of measurements: ChEMBL document CHEMBL1132779

# target.system: Substance-P receptor (Homo sapiens)
# Sequence (P25103 whole entry): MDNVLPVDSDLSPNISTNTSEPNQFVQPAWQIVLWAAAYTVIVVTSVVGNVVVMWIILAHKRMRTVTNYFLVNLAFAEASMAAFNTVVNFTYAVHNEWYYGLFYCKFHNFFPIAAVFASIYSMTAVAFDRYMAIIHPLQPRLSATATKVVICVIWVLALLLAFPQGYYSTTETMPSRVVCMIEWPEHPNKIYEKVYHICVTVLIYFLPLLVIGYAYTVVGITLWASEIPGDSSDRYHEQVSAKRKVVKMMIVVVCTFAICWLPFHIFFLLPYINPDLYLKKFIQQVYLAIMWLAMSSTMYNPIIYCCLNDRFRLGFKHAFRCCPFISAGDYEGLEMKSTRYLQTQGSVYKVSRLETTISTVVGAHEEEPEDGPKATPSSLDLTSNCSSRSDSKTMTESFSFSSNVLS
# assay.text: Binding affinity towards Tachykinin receptor 1 in CHO cells using [3H]-Sar SP as radioligand
quantity.name: Ki (nM)

(P) NC(=O)CN[C@@H](COCc1cc(C(F)(F)F)cc(C(F)(F)F)c1)[C@H](CCN1CCC(O)(c2ccccc2)CC1)c1ccc(Cl)c(Cl)c1
(Q) O/N=C(\COCc1cc(C(F)(F)F)cc(C(F)(F)F)c1)C(CCN1CCC(O)(c2ccccc2)CC1)c1ccc(Cl)c(Cl)c1 (centres undefined)
INPUT: Higher Ki: P or Q ? Label of pick, please.
OUTPUT: Q
(Q: 24 nM, P: 9 nM)

###

# target.system: Substance-P receptor (Homo sapiens)
# assay.text: Binding affinity towards Tachykinin receptor 1 in CHO cells using [3H]-Sar SP as radioligand
# Assay type: cell-based
pKi: −log10 of the molar value.
quantity.name: pKi

# count of solved cases: 5
- compound: "NC(=O)CNC(COCc1cc(C(F)(F)F)cc(C(F)(F)F)c1)C(CCN1CCC(O)(c2ccccc2)CC1)c1ccc(Cl)c(Cl)c1 (configuration not stated)"
  target.system: "Substance-P receptor (Homo sapiens)"
  quantity.name: "pKi"
  result: 8.40
- compound: "CO/N=C(\\COCc1cc(C(F)(F)F)cc(C(F)(F)F)c1)[C@H](CCN1CCC(O)(c2ccccc2)CC1)c1ccc(Cl)c(Cl)c1"
  target.system: "Substance-P receptor (Homo sapiens)"
  quantity.name: "pKi"
  result: 7.70
- compound: "CO/N=C(\\COCc1cc(C(F)(F)F)cc(C(F)(F)F)c1)C(CCN1CCC(O)(c2ccccc2)CC1)c1ccc(Cl)c(Cl)c1 (configuration not stated)"
  target.system: "Substance-P receptor (Homo sapiens)"
  quantity.name: "pKi"
  result: 7.60
- compound: "O/N=C(/COCc1cc(C(F)(F)F)cc(C(F)(F)F)c1)C(CCN1CCC(O)(c2ccccc2)CC1)c1ccc(Cl)c(Cl)c1 (configuration not stated)"
  target.system: "Substance-P receptor (Homo sapiens)"
  quantity.name: "pKi"
  result: 7.47
- compound: "CO/N=C(/COCc1cc(C(F)(F)F)cc(C(F)(F)F)c1)C(CCN1CCC(O)(c2ccccc2)CC1)c1ccc(Cl)c(Cl)c1 (configuration not stated)"
  target.system: "Substance-P receptor (Homo sapiens)"
  quantity.name: "pKi"
  result: 7.60

(I) NC(=O)CN[C@H](COCc1cc(C(F)(F)F)cc(C(F)(F)F)c1)[C@@H](CCN1CCC(O)(c2ccccc2)CC1)c1ccc(Cl)c(Cl)c1
(II) NC(=O)CN[C@@H](COCc1cc(C(F)(F)F)cc(C(F)(F)F)c1)[C@@H](CCN1CCC(O)(c2ccccc2)CC1)c1ccc(Cl)c(Cl)c1
INPUT: Consider entries I and II . Which has the numerically lower pKi? Label of pick, please.
OUTPUT: I
(I: 8.30, II: 9.15)

###

# target.system: UniProt:P21452
# Sequence (P21452 whole entry): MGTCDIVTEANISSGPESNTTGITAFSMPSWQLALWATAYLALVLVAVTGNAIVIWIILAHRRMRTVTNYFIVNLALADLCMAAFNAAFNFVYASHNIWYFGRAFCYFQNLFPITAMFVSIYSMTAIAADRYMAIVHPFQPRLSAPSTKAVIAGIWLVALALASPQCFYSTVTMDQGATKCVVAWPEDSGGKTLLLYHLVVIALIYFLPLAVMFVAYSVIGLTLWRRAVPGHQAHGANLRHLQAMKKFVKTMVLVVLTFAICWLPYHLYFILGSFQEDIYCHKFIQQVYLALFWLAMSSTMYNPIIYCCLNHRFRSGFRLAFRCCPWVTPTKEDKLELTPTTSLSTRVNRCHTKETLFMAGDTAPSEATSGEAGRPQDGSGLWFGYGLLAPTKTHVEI
# assay.text: Binding affinity towards Tachykinin receptor 2 in CHO cells using [3H]-neurokinin A as radioligand
quantity.name: Ki (nM)

- compound: "CO/N=C(\\COCc1cc(C(F)(F)F)cc(C(F)(F)F)c1)[C@H](CCN1CCC(O)(c2ccccc2)CC1)c1ccc(Cl)c(Cl)c1"
  Ki, nM: 7

(a) CC(=O)NC1(c2ccccc2)CCN(CC[C@H](CN(C)C(=O)c2ccccc2)c2ccc(Cl)c(Cl)c2)CC1 [SAREDUTANT]
(b) NC(=O)CNC(COCc1cc(C(F)(F)F)cc(C(F)(F)F)c1)C(CCN1CCC(O)(c2ccccc2)CC1)c1ccc(Cl)c(Cl)c1 (stereo not drawn)
(c) O/N=C(\COCc1cc(C(F)(F)F)cc(C(F)(F)F)c1)C(CCN1CCC(O)(c2ccccc2)CC1)c1ccc(Cl)c(Cl)c1 (stereo not drawn)
(d) O/N=C(/COCc1cc(C(F)(F)F)cc(C(F)(F)F)c1)C(CCN1CCC(O)(c2ccccc2)CC1)c1ccc(Cl)c(Cl)c1 (stereo not drawn)
INPUT: Hello, I need these entries ordered by Ki, highest reading first. Thanks! Please express your ranking as an ordered list of the labels.
OUTPUT: d, c, b, a
